RF (Reversal Fold: IC50 of doxorubicin alone / in presence of modulator) values for the compounds below.
- Tested on: K562/DOX cells
- assay_method_text: Doxorubicin cytotoxicity enhancement assay (MTT)
- Type: cell-based, human
- details: compound at 3 µM, 72 h

COc1cc(/C=C/CN2CCN(CCCOc3ccc4oc(=O)cc(C)c4c3)CC2)cc(OC)c1OC :: 4.1
COc1cc(/C=C/CN2CCN(CCCOc3ccc4ccc(=O)oc4c3)CC2)cc(OC)c1OC :: 4.5

Q. Please state recorded RF (Reversal Fold: IC50 of doxorubicin alone / in presence of modulator) (tested on K562/DOX cells) of COc1ccc(C(CCCN2CCN(CCOc3ccc4oc(=O)cc(C)c4c3)CC2)c2ccc(OC)cc2)cc1
A. 14.3

Q. Please state recorded RF (Reversal Fold: IC50 of doxorubicin alone / in presence of modulator) (tested on K562/DOX cells) of COc1cc(CN2CCN(CCOc3ccc4oc(=O)cc(C)c4c3)CC2)cc(OC)c1OC
A. 2.7

Q. Please state recorded RF (Reversal Fold: IC50 of doxorubicin alone / in presence of modulator) (tested on K562/DOX cells) of COc1ccc(C(CCCN2CCN(CCCOc3ccc4oc(=O)ccc4c3)CC2)c2ccc(OC)cc2)cc1
A. 7.9

Q. Please state recorded RF (Reversal Fold: IC50 of doxorubicin alone / in presence of modulator) (tested on K562/DOX cells) of COc1cc(/C=C/CN2CCN(CCCOc3ccc4oc(=O)ccc4c3)CC2)cc(OC)c1OC
A. 2.0

Q. Please state recorded RF (Reversal Fold: IC50 of doxorubicin alone / in presence of modulator) (tested on K562/DOX cells) of COc1cc(CN2CCN(CCOc3ccc4ccc(=O)oc4c3)CC2)cc(OC)c1OC
A. 1.9

Q. Please state recorded RF (Reversal Fold: IC50 of doxorubicin alone / in presence of modulator) (tested on K562/DOX cells) of COc1cc(/C=C/CN2CCN(CCCCOc3ccc4oc(=O)ccc4c3)CC2)cc(OC)c1OC
A. 1.3

----------
pKi values for the compounds below.
- target_entity: hCA XII (Homo sapiens, UniProt O43570)
- Sequence (O43570 25-354): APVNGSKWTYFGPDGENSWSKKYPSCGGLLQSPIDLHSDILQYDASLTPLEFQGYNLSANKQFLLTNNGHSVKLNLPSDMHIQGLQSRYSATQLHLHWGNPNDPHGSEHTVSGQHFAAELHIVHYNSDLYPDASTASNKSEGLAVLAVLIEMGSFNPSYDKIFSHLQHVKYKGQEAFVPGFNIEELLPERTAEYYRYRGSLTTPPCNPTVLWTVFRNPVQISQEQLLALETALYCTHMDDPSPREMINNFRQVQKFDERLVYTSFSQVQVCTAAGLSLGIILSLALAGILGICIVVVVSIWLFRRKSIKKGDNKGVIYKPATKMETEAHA
The read-out pKi is expressed as -log10 of concentration in moles per litre.

Use these answered entries as a reference point.
COc1cc(CN2CCN(CCOc3ccc4oc(=O)cc(C)c4c3)CC2)cc(OC)c1OC :: 6.64
COc1cc(CN2CCN(CCCCOc3ccc4oc(=O)cc(C)c4c3)CC2)cc(OC)c1OC :: 7.00
COc1cc(CN2CCN(CCCCOc3ccc4c(C)cc(=O)oc4c3)CC2)cc(OC)c1OC :: 7.14
COc1cc(CN2CCN(CCCOc3ccc4ccc(=O)oc4c3)CC2)cc(OC)c1OC :: 7.87

// moving on: another record for pKi
Q. Please state recorded pKi (tested on hCA XII (Homo sapiens, UniProt O43570)) of COc1ccc(C(CCCN2CCN(CCOc3ccc4oc(=O)ccc4c3)CC2)c2ccc(OC)cc2)cc1
A. 7.04

----------
- target_entity: hCA XII (Homo sapiens)
outcome_measure: pKi
The read-out pKi is expressed as -log10 of concentration in moles per litre.

Q. Data request, read-out pKi, for COc1ccc(C(CCCN2CCN(CCCOc3ccc4ccc(=O)oc4c3)CC2)c2ccc(OC)cc2)cc1 [Compound 26]
A. 6.94

Q. Data request, read-out pKi, for COc1cc(/C=C/CN2CCN(CCOc3ccc4oc(=O)ccc4c3)CC2)cc(OC)c1OC [Compound 7]
A. 7.53

Q. Data request, read-out pKi, for COc1ccc(C(CCCN2CCN(CCCOc3ccc4oc(=O)cc(C)c4c3)CC2)c2ccc(OC)cc2)cc1 [Compound 35]
A. 6.47

Q. Data request, read-out pKi, for COc1cc(/C=C/CN2CCN(CCCCOc3ccc4oc(=O)ccc4c3)CC2)cc(OC)c1OC [Compound 9]
A. 8.14

Q. Data request, read-out pKi, for COc1cc(CN2CCN(CCOc3ccc4c(C)cc(=O)oc4c3)CC2)cc(OC)c1OC [Compound 16]
A. 7.28

Q. Data request, read-out pKi, for COc1ccc(C(CCCN2CCN(CCCOc3ccc4c(C)cc(=O)oc4c3)CC2)c2ccc(OC)cc2)cc1 [Compound 29]
A. 7.04

Q. Data request, read-out pKi, for COc1cc(/C=C/CN2CCN(CCCOc3ccc4oc(=O)ccc4c3)CC2)cc(OC)c1OC [Compound 8]
A. 7.64

Q. Data request, read-out pKi, for COc1cc(CN2CCN(CCCCOc3ccc4oc(=O)ccc4c3)CC2)cc(OC)c1OC [Compound 21]
A. 7.80

----------
- System: K562/DOX cells
- assay_method_text: Doxorubicin cytotoxicity enhancement assay (MTT)
- Type: cell-based, human
- details: compound at 3 µM, 72 h
outcome_measure: RF (Reversal Fold: IC50 of doxorubicin alone / in presence of modulator)

Use these answered entries as a reference point.
COc1cc(CN2CCN(CCCCOc3ccc4oc(=O)ccc4c3)CC2)cc(OC)c1OC [Compound 21] :: 4.1
COc1cc(CN2CCN(CCCOc3ccc4ccc(=O)oc4c3)CC2)cc(OC)c1OC [Compound 14] :: 3.4
COc1cc(CN2CCN(CCCCOc3ccc4c(C)cc(=O)oc4c3)CC2)cc(OC)c1OC [Compound 18] :: 3.2
COc1cc(/C=C/CN2CCN(CCOc3ccc4oc(=O)cc(C)c4c3)CC2)cc(OC)c1OC [Compound 10] :: 1.4

// moving on: another record for RF (Reversal Fold: IC50 of doxorubicin alone / in presence of modulator)
Q. Data request, read-out RF (Reversal Fold: IC50 of doxorubicin alone / in presence of modulator), for COc1cc(CN2CCN(CCCOc3ccc4oc(=O)cc(C)c4c3)CC2)cc(OC)c1OC [Compound 23]
A. 1.8

----------
Listed here: molecules with reported Ki for hCA II (Homo sapiens, UniProt P00918).

COc1ccc(C(CCCN2CCN(CCOc3ccc4oc(=O)ccc4c3)CC2)c2ccc(OC)cc2)cc1 [Compound 31] :: > 10 µM

Q. Data request, read-out Ki, for COc1ccc(C(CCCN2CCN(CCCOc3ccc4oc(=O)ccc4c3)CC2)c2ccc(OC)cc2)cc1 [Compound 32]
A. > 10 µM

Q. Data request, read-out Ki, for COc1cc(CN2CCN(CCCOc3ccc4oc(=O)cc(C)c4c3)CC2)cc(OC)c1OC [Compound 23]
A. > 10 µM

Q. Data request, read-out Ki, for COc1cc(/C=C/CN2CCN(CCCCOc3ccc4c(C)cc(=O)oc4c3)CC2)cc(OC)c1OC [Compound 6]
A. > 10 µM

----------
- target_entity: MRP1 (Homo sapiens)
- Sequence (P33527 whole entry): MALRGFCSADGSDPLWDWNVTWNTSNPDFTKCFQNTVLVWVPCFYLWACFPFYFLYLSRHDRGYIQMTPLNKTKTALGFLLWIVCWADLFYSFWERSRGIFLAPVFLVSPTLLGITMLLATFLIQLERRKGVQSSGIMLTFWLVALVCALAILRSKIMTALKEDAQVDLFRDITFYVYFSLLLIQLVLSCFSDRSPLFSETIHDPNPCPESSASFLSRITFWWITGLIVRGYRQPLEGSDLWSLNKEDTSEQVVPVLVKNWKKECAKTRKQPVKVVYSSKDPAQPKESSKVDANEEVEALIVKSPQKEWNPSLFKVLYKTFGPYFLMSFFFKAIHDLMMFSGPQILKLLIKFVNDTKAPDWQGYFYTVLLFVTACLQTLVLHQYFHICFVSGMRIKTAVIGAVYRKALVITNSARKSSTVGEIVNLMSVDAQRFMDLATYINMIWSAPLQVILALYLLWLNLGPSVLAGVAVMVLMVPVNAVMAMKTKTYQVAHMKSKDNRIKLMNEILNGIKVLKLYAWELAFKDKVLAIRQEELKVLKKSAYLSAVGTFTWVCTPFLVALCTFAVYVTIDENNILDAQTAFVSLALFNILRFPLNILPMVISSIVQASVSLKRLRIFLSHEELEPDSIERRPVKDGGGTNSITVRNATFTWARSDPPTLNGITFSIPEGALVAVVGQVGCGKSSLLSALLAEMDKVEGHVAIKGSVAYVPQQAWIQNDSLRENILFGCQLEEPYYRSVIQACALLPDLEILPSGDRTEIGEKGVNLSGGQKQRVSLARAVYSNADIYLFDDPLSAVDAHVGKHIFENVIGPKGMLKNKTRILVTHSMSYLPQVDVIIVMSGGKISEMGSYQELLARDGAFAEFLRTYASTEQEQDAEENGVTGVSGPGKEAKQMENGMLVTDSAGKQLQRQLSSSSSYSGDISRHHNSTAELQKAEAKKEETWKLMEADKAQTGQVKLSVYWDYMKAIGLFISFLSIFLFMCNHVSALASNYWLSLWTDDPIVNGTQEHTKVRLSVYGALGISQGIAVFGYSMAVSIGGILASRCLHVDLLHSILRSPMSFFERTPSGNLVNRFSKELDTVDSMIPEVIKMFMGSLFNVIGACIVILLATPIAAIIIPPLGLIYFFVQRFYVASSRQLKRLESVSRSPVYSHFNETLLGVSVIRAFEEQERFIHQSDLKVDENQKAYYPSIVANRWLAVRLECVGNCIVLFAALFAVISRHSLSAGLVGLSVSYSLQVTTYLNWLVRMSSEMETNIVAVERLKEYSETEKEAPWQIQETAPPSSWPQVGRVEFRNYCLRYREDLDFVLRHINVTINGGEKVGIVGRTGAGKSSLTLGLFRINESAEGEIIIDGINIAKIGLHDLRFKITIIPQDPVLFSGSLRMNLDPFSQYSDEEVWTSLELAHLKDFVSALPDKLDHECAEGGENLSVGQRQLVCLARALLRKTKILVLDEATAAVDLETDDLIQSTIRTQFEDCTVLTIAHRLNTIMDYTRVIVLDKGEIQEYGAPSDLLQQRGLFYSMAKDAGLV
- assay_method_text: Calcein-AM transport inhibition in MDCK-MRP1 cells
- details: mean ± SEM
outcome_measure: EC50 (µM)
API: value field is a number in µM; no unit string.

Q. Please state recorded EC50 (tested on MRP1 (Homo sapiens)) of COc1cc(CN2CCN(CCOc3ccc4ccc(=O)oc4c3)CC2)cc(OC)c1OC
A. 52

----------
pEC50 values for the molecules below.
- target_entity: P-gp (Homo sapiens, UniProt P08183)
- Sequence (P08183 whole entry): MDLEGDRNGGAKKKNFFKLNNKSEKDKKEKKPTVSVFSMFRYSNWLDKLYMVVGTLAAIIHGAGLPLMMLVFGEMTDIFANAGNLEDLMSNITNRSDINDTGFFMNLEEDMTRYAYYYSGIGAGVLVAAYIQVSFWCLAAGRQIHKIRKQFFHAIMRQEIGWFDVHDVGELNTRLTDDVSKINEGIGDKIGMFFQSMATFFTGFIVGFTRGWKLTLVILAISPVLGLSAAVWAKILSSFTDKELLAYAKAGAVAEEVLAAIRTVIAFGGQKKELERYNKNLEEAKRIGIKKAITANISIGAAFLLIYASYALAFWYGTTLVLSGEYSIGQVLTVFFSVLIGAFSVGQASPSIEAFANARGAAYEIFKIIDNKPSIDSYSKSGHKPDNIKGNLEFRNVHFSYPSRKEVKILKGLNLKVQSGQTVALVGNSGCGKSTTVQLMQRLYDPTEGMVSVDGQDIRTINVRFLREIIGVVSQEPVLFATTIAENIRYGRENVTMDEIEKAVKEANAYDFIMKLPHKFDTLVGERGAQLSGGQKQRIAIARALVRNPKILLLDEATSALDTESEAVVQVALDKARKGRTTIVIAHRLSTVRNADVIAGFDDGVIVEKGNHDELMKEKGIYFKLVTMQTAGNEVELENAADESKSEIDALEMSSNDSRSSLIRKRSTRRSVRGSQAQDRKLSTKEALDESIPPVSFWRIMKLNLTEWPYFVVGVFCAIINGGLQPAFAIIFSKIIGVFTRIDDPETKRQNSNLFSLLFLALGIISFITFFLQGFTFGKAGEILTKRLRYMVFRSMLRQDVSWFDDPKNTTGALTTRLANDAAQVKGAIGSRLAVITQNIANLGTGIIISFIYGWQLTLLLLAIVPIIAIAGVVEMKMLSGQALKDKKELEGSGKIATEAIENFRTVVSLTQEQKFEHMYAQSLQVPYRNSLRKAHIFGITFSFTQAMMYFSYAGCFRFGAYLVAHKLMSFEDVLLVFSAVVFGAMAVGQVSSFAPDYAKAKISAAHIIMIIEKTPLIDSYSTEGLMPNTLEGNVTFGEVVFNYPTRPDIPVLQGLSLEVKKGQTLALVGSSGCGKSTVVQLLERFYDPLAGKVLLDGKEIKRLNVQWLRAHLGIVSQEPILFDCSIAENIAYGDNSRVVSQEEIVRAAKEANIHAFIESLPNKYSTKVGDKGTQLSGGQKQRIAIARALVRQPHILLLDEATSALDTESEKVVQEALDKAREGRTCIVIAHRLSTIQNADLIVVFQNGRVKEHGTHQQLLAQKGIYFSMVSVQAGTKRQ
- assay_method_text: Calcein-AM transport inhibition in MDCK-MDR1 cells
- details: mean ± SEM
The read-out pEC50 is expressed as -log10 of concentration in moles per litre.

Use these answered entries as a reference point.
COc1ccc(C(CCCN2CCN(CCCCOc3ccc4oc(=O)ccc4c3)CC2)c2ccc(OC)cc2)cc1 [Compound 33] :: 5.52
COc1cc(CN2CCN(CCOc3ccc4ccc(=O)oc4c3)CC2)cc(OC)c1OC [Compound 13] :: 4.84

Q. Data request, read-out pEC50, for COc1ccc(C(CCCN2CCN(CCCCOc3ccc4ccc(=O)oc4c3)CC2)c2ccc(OC)cc2)cc1 [Compound 27]
A. 5.40

Q. Data request, read-out pEC50, for COc1ccc(C(CCCN2CCN(CCCOc3ccc4oc(=O)ccc4c3)CC2)c2ccc(OC)cc2)cc1 [Compound 32]
A. 5.34

----------
- System: K562/DOX cells
- assay_method_text: Doxorubicin cytotoxicity enhancement assay (MTT)
- Type: cell-based, human
- details: compound at 3 µM, 72 h
- Description: K562 is a highly undifferentiated erythroleukemia cell line. The doxorubicin-resistant K562/DOX cells overexpress almost exclusively the transporter membrane protein P-gp. K562/DOX cells were incubated for 72 h with different concentrations of doxorubicin in combination with 1 or 3 µM of all compounds. […] Cell viability of the cell lines was measured by the MTT assay, using a Synergy HT microplate spectrofluorometer (Bio-Tek Instruments, Winooski, VT, USA). […]
RF (Reversal Fold: IC50 of doxorubicin alone / in presence of modulator) values for the compounds below.
// return just the number, without any unit appended

Use these answered entries as a reference point.
COc1cc(/C=C/CN2CCN(CCCCOc3ccc4oc(=O)cc(C)c4c3)CC2)cc(OC)c1OC :: 2.7
COc1ccc(C(CCCN2CCN(CCCOc3ccc4oc(=O)cc(C)c4c3)CC2)c2ccc(OC)cc2)cc1 :: 14.3
COc1cc(/C=C/CN2CCN(CCOc3ccc4ccc(=O)oc4c3)CC2)cc(OC)c1OC :: 2.3
COc1cc(CN2CCN(CCCOc3ccc4c(C)cc(=O)oc4c3)CC2)cc(OC)c1OC :: 2.1

// moving on: another record for RF (Reversal Fold: IC50 of doxorubicin alone / in presence of modulator)
Q. Please state recorded RF (Reversal Fold: IC50 of doxorubicin alone / in presence of modulator) (tested on K562/DOX cells) of COc1ccc(C(CCCN2CCN(CCOc3ccc4oc(=O)ccc4c3)CC2)c2ccc(OC)cc2)cc1
A. 11.4
